Biological target: hGLP-1R (Homo sapiens, UniProt P43220)
Sequence (P43220 24-463): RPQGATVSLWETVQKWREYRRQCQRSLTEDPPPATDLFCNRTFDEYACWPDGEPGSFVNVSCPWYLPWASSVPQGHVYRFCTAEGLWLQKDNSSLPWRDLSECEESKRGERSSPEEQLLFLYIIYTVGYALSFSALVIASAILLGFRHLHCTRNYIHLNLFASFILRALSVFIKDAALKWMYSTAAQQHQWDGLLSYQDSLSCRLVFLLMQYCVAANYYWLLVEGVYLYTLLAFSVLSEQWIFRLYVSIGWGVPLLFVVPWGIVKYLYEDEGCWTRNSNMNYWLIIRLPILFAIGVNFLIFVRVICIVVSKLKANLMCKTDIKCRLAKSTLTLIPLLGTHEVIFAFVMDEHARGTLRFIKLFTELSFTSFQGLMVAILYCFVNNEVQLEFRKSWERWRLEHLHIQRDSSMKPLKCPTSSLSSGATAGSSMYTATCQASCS
Experiment: cell-based or functional assay
Starred links: 1 amine or outer side, 2 acyl side, 3 side chain; linkers in the order of their positions; H or OH if unused. Non-standard residues stand in square brackets, D forms with d. Groups on a side chain read outwards from the residue. No end group written: not given here. *: point of attachment. C18 diacid = O=C(O)CCCCCCCCCCCCCCCCC(=O)*; γGlu = O=C(O)[C@H](CCC(=O)[*:2])N[*:1]; 4Pal = N[C@@H](Cc1ccncc1)C(=O)O; αMeL = CC(C)C[C@](C)(N)C(=O)O; Dab = NCC[C@H](N)C(=O)O; AEEA = NCCOCCOCC(=O)O; Aib = CC(C)(N)C(=O)O
recorded-metric: cAMP Rel EC50, nM (1% HSA) (nM)
Respond numerically; units are nM and should not be typed.

Study these solved cases before continuing.
binder: Y[Aib]QGTFTSD[4Pal]S[Dab][αMeL]LDKK([AEEA-γGlu-C18 diacid])AQ[Aib]AFIEYLIE[Aib]GESSGAPPPSGS-NH2 [Example 188]
unit-string: nM
endpoint-value: 436
--
binder: YXQGTFTSDXSQXLDXKAQXQFIEYLLAGGPSSGAPPPSGSEE ((γGlu)2-C18 diacid on Lys; non-natural residues; amide; synthetic construct; SITE 2: note = 2-Aminoisobutyric Acid; SITE 10: note = 3-(4-Pyridyl)-L-alanine; SITE 13: note = alpha-methyl-leucine; SITE 16: note = L-ornithine; SITE 17: note = Lysine is chemically modified through conjugation of the epsilon-amino group of the Lysine side chain with (gamma-Gl)) [Example 1006]
unit-string: nM
endpoint-value: 574

Q: State its cAMP Rel EC50, nM (1% HSA) for this binder: YXQGTFTSDXSXXLDXKAQXEFIEXLLEGGPSSGAPPPSGSEE (non-natural residues; lipidated Lys; C-terminal amide; synthetic construct; SITE 2: note = 2-Aminoisobutyric Acid; SITE 10: note = 3-(4-Pyridyl)-L-alanine; SITE 12: note = L-ornithine; SITE 13: note = alpha-methyl-leucine; SITE 16: note = L-ornithine; SITE 17: note = Lysine is chemically modified through conjugation of the epsilon-amino group of the Lys) [Example 976]
A: 2860
